Target or test system: CDK1/cyclinB (Homo sapiens, UniProt P06493)
Construct: purchased Invitrogen PV3292
Sequence (P06493 whole entry): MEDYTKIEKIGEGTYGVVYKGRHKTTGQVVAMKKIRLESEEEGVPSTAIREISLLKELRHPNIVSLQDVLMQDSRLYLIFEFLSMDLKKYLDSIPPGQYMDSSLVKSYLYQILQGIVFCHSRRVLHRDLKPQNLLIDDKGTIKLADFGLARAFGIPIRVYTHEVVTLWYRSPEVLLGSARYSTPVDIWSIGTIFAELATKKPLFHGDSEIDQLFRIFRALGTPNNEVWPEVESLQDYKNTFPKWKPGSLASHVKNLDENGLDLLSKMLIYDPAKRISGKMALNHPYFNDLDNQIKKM
Sequence (P14635 whole entry partner): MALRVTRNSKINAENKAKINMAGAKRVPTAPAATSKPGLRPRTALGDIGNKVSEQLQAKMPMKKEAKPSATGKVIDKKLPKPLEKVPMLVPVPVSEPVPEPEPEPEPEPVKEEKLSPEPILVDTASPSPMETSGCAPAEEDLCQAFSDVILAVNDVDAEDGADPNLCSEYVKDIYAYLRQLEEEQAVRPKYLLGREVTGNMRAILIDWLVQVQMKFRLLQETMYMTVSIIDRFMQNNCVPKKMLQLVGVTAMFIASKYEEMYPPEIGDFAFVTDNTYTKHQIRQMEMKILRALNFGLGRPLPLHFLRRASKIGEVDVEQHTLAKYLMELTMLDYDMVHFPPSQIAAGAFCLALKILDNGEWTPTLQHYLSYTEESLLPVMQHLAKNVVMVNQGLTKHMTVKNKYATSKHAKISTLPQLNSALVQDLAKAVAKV
Test name: Z'-LYTE kinase assay CDK1/cyclinB
Format: biochemical
Stated conditions: read-out: Kinase inhibition, IC50 CDK1B
pIC50: −log10 of the molar value.
Endpoint label: pIC50

Some solved cases for reference:
Compound structure string	pIC50
Cn1cc(-c2ccnc(Nc3ccc(O)cc3Cl)n2)c2ccccc21	< 5.00
CCCn1cc(-c2ccnc(Nc3cccc(S(N)(=O)=O)c3)n2)c2ccnc(Cl)c21	> 10.00

Pending molecule:
Sample `CCn1cc(-c2ccnc(Nc3c(C)cc(O)cc3C)n2)c2ccccc21` — what was its pIC50?
< 5.00

* * *

Target or test system: CDK2/cyclinA (Homo sapiens, UniProt P24941)
Construct: purchased Invitrogen PV3267
Test name: Z'-LYTE kinase assay CDK2/cyclinA
Type: biochemical
Stated conditions: read-out: Kinase inhibition, IC50 CDK2A
Experimental: Kinase assays. The compounds from the example above were tested for their ability to inhibit kinases. […] Reactions were terminated by addition of stop buffer, and fluorescence emission intensity ratio 445 nm/520 nm (excited at 400 nm) was quantified by VICTOR-3 Multilabel Reader (Perkin-Elmer, Waltham, Mass., USA). Phosphorylation was calculated from the emission ratio. IC50 was determined using Sigmoid curve-fitting software Origin 6.0 (MicroCal, LLC, Northampton, Mass., USA).
pIC50: −log10 of the molar value.
Endpoint label: pIC50

Compound structure string	Target or test system	Endpoint label	Measurement
CCn1cc(-c2ccnc(Nc3cccc([N+](=O)[O-])c3)n2)c2cccnc21	CDK2/cyclinA (Homo sapiens, UniProt P24941)	pIC50	5.97

A. Oc1ccc(Nc2nccc(-c3cn(Cc4ccccc4)c4ccccc34)n2)cc1
B. CCCn1cc(-c2ccnc(Nc3ccc(S(N)(=O)=O)cc3)n2)c2cccnc21
Please indicate which has the smaller reported pIC50: A , or B . Select an item and report its label.
A
(A: 5.93, B: 8.00)

* * *

Target or test system: CDK9T1 (Homo sapiens, UniProt P50750)
Sequence (P50750 whole entry): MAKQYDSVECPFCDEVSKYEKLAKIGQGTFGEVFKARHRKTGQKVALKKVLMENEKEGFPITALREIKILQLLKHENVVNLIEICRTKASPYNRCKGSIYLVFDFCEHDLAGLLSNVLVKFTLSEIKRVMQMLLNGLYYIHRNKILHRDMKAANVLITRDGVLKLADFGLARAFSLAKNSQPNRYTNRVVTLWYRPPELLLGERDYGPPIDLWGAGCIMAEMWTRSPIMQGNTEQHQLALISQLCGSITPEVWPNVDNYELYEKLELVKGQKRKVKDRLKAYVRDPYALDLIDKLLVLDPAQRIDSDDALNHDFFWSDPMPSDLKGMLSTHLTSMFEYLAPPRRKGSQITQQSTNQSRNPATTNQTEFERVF
Sequence (O60563 whole entry partner): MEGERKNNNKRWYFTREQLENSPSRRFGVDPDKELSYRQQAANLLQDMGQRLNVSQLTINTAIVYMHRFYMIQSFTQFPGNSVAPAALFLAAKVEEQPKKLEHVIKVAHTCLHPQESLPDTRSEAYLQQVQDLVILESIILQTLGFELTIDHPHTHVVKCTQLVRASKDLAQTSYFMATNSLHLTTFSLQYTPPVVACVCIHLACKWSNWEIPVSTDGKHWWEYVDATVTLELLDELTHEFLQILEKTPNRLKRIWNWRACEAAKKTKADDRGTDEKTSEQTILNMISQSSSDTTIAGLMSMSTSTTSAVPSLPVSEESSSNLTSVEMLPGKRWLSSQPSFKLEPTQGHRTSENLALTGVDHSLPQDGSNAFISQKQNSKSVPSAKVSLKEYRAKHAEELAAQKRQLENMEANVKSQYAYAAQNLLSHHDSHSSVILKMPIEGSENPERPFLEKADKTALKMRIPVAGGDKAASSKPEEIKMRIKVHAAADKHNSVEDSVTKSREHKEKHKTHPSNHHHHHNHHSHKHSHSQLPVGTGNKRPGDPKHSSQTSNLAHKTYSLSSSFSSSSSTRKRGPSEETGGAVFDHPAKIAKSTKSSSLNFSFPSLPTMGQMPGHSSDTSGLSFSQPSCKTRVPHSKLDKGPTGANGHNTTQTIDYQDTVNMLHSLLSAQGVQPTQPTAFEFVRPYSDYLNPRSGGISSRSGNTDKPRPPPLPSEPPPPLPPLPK
// values below are reported IC50

Sample `Cn1cc(-c2ccnc(Nc3ccc(O)cc3Cl)n2)c2ccccc21` — what was its IC50?
> 10 µM

Further, for `CCn1cc(-c2ccnc(Nc3ccc(O)cc3)n2)c2cccnc21` ?
> 10 µM

Further, for `CCn1cc(-c2ccnc(Nc3c(C)cc(O)cc3C)n2)c2ccccc21` ?
> 10 µM

* * *

Target or test system: Aurora A (Homo sapiens, UniProt O14965)
Construct: purchased Invitrogen PV3612
Sequence (O14965 whole entry): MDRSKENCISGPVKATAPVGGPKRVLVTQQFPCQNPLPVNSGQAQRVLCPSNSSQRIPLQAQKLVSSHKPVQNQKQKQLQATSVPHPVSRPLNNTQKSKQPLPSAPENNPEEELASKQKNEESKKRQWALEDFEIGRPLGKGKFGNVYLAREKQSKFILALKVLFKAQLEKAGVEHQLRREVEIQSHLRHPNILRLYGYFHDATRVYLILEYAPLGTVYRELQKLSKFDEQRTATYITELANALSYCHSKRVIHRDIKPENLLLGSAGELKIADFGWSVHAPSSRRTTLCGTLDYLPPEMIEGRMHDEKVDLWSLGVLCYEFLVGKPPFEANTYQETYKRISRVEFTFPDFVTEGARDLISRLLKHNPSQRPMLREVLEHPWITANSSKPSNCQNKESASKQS
Test name: Z'-LYTE kinase assay Aurora A
Assay type: biochemical
Stated conditions: read-out: Kinase inhibition, IC50 Aurora A
Description: Kinase assays. The compounds from the example above were tested for their ability to inhibit kinases. […] Reactions were terminated by addition of stop buffer, and fluorescence emission intensity ratio 445 nm/520 nm (excited at 400 nm) was quantified by VICTOR-3 Multilabel Reader (Perkin-Elmer, Waltham, Mass., USA). Phosphorylation was calculated from the emission ratio. IC50 was determined using Sigmoid curve-fitting software Origin 6.0 (MicroCal, LLC, Northampton, Mass., USA).
pIC50: −log10 of the molar value.
Endpoint label: pIC50

Some solved cases for reference:
Compound structure string	pIC50
CCCn1cc(-c2ccnc(Nc3ccc(C)c(S(=O)(=O)N4CCOCC4)c3)n2)c2ccncc21	5.78
CCn1cc(-c2ccnc(Nc3cccc([N+](=O)[O-])c3)n2)c2cccnc21	5.87
CCCn1cc(-c2ccnc(Nc3ccc(O)cc3)n2)c2cccnc21	6.68
CCCn1cc(-c2ccnc(Nc3cccc([N+](=O)[O-])c3)n2)c2cccnc21	5.94

a. CCn1cc(-c2ccnc(Nc3cccc(S(N)(=O)=O)c3)n2)c2ccnc(Cl)c21
b. CCCn1cc(-c2ccnc(Nc3cccc(S(N)(=O)=O)c3)n2)c2ccncc21
Hi there! Just curious which has the higher pIC50 between a and b . Select an item and report its label.
b
(b: 7.30, a: 5.89)

P. CCn1cc(-c2ccnc(Nc3cccc(O)c3)n2)c2ccccc21
Q. CCn1cc(-c2ccnc(Nc3cccc(S(N)(=O)=O)c3)n2)c2cccnc21
R. CCn1cc(-c2ccnc(Nc3ccc(O)cc3)n2)c2ccccc21
S. CCn1cc(-c2ccnc(Nc3ccc(O)cc3)n2)c2ccnc(Cl)c21
T. Cn1cc(-c2ccnc(Nc3cccc(O)c3)n2)c2ccccc21
Form: Sort by [pIC50] Order [ ascending ] Give the labels in the order specified.
P, S, R, T, Q

* * *

// values below are reported pIC50
Target or test system: Aurora B (Homo sapiens)
Sequence (Q96GD4 whole entry): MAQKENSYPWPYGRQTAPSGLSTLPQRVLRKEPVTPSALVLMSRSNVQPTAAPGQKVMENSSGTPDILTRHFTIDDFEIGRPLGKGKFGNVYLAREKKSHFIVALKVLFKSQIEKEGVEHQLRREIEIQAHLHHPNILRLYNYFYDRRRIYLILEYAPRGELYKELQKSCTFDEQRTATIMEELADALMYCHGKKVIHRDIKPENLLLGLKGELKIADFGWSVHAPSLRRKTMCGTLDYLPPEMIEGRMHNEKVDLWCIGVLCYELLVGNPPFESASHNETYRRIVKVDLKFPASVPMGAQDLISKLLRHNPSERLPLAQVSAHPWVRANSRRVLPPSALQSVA
Test name: Kinase assay Aurora B (Table I)
Type: biochemical
Stated conditions: read-out: Kinase inhibition, IC50 Aurora B
pIC50: −log10 of the molar value.

Some solved cases for reference:
Molecule	Endpoint label	Measurement
Cc1cc(O)cc(C)c1Nc1nccc(-c2cn(C)c3ccccc23)n1 [Compound 5]	pIC50	< 5.00
Oc1cccc(Nc2nccc(-c3cn(Cc4ccccc4)c4ccccc34)n2)c1 [Compound 11]	pIC50	< 5.00
CCCn1cc(-c2ccnc(Nc3ccc(C)c(S(=O)(=O)N4CCOCC4)c3)n2)c2cccnc21 [Compound 24]	pIC50	≤ 5.00

# get_value(readout= pIC50, system= Aurora B (Homo sapiens)) for CCn1cc(-c2ccnc(Nc3c(C)cc(O)cc3C)n2)c2ccccc21 [Compound 9]
< 5.00

Further, for CCn1cc(-c2ccnc(Nc3ccc(O)cc3C)n2)c2ccccc21 [Compound 8] ?
< 5.00

Further, for CCCn1cc(-c2ccnc(Nc3cccc(S(N)(=O)=O)c3)n2)c2ccnc(Cl)c21 [Compound 96] ?
< 5.00

* * *

Target or test system: CDK1/cyclinB (Homo sapiens, UniProt P06493)
Construct: purchased Invitrogen PV3292
Test name: Z'-LYTE kinase assay CDK1/cyclinB
Type: biochemical
Stated conditions: read-out: Kinase inhibition, IC50 CDK1B
pIC50: −log10 of the molar value.
// values below are reported pIC50

Molecule	Target or test system	pIC50
Cc1cc(O)ccc1Nc1nccc(-c2cn(C)c3ccccc23)n1 [Compound 4]	CDK1/cyclinB (Homo sapiens, UniProt P06493)	< 5.00
CCCn1cc(-c2ccnc(Nc3ccc(S(N)(=O)=O)cc3)n2)c2nc(Cl)cc(C)c21 [Compound 39]	CDK1/cyclinB (Homo sapiens, UniProt P06493)	< 5.00

Sample Cc1cc(O)cc(C)c1Nc1nccc(-c2cn(C)c3ccccc23)n1 [Compound 5] — what was its pIC50?
< 5.00

* * *

Target or test system: Aurora A (Homo sapiens)
Construct: purchased Invitrogen PV3612
Test name: Z'-LYTE kinase assay Aurora A
Type: biochemical
Stated conditions: read-out: Kinase inhibition, IC50 Aurora A
pIC50: −log10 of the molar value.
Endpoint label: pIC50

Some solved cases for reference:
Molecule	Endpoint label	Measurement
Cn1cc(-c2ccnc(Nc3ccc(O)cc3)n2)c2ccccc21 [Compound 2]	pIC50	6.82
CCCn1cc(-c2ccnc(Nc3ccc(S(N)(=O)=O)cc3)n2)c2ccncc21 [Compound 112]	pIC50	6.09
CCn1cc(-c2ccnc(Nc3cccc(O)c3)n2)c2cccnc21 [Compound 13]	pIC50	6.15
CCCn1cc(-c2ccnc(Nc3cccc(S(N)(=O)=O)c3)n2)c2ccnc(Cl)c21 [Compound 96]	pIC50	6.10

I. CCn1cc(-c2ccnc(Nc3cccc(O)c3)n2)c2ccnc(Cl)c21 [Compound 72]
II. CCCn1cc(-c2ccnc(Nc3cccc(S(N)(=O)=O)c3)n2)c2cccnc21 [Compound 22]
III. CCCn1cc(-c2ccnc(Nc3cccc(S(N)(=O)=O)c3)n2)c2nc(Cl)cc(C)c21 [Compound 42]
Form: Sort by [pIC50] Order [ ascending ] Give the labels in the order specified.
I, III, II
(I: 6.10, III: 7.01, II: 8.10)

Just for reference, patent US8309550B2 is where these values come from.
